Reported IC50 values for a set of molecules
System: wild type ALAS2 (Homo sapiens)
Construct: MBP (TEV-cleavable) (C, cleaved yes); made in house; host or cells: E. coli
Measurement protocol: General IC50 assay, version 1 (5 ug/mL ALAS2), ALA by mass spectrometry
Format: biochemical
Measurement conditions: version 1 assay: 5 ug/mL ALAS2, 0 uM PLP, 1 h reaction; read-out: IC50 (uM) ALAS2 v1; 0 uM PLP

Solved entries (count: 2):
Cn1c(NN)nnc1-c1ccccc1 [Compound 30] : > 50 µM
Cc1cnc(NN)s1 [Compound 40] : < 10 µM

Report measured IC50 on wild type ALAS2 (Homo sapiens); entry: NNc1nc(-c2ccco2)cs1 [Compound 18]
> 50 µM

Report measured IC50 on wild type ALAS2 (Homo sapiens); entry: CCOC(=O)c1sc(NN)nc1C [Compound 57]
10 to 50 µM

Report measured IC50 on wild type ALAS2 (Homo sapiens); entry: CC(C)n1ccc(NN)n1 [Compound 32]
< 10 µM

Report measured IC50 on wild type ALAS2 (Homo sapiens); entry: NN(CCO)c1nnn[nH]1 [Compound 56]
> 50 µM

Report measured IC50 on wild type ALAS2 (Homo sapiens); entry: NNc1nnn[nH]1 [Compound 67]
< 10 µM

---

System: wild type ALAS2 (Homo sapiens, UniProt P22557)
Construct: MBP (TEV-cleavable) (C, cleaved yes); made in house; host or cells: E. coli
Sequence (P22557 79-587): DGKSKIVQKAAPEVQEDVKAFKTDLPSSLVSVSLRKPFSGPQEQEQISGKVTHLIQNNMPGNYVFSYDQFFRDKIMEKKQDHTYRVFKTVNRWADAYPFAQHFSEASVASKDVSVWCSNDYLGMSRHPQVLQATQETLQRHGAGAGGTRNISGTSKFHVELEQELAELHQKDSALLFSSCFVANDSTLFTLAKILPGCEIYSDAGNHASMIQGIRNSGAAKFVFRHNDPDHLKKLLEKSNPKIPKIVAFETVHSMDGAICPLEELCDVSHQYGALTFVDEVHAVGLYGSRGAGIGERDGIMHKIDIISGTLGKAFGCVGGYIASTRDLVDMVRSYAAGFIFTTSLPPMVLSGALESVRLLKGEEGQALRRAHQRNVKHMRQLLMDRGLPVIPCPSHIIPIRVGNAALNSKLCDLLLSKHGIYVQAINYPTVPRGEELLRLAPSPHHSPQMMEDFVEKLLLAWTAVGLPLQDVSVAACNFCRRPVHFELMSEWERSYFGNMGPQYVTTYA
Measurement protocol: General IC50 assay, version 2 (2 ug/mL ALAS2), ALA by mass spectrometry
Type: biochemical
Measurement conditions: version 2 assay: 2 ug/mL ALAS2, 0 uM PLP, 2 h reaction, read-out: IC50 (uM) ALAS2 v2
Reported IC50 values for a set of molecules

NNc1nc(-c2ccc(C(F)(F)F)cc2)no1 : 10 to 50 µM
COc1ccc(-c2noc(NN)n2)cc1 : 10 to 50 µM
NNc1nc(-c2ccc3ccccc3c2)no1 : < 10 µM

Report measured IC50 on wild type ALAS2 (Homo sapiens, UniProt P22557); entry: NNc1nc(-c2ccnc3ccccc23)no1
< 10 µM

Report measured IC50 on wild type ALAS2 (Homo sapiens, UniProt P22557); entry: NNc1nc(-c2cccc(C(F)(F)F)c2)no1
> 50 µM
